Sourced from ChEMBL document CHEMBL1772992

- Test system: Radical scavenging activity
- assay text: Antioxidant activity assessed as DPPH free radical scavenging activity after 20 to 60 mins by spectrophotometry
- Type: functional
- Parameters: concentration or dose not given beside the values
# key: entry, value: Activity

{"molecule": "COC(=O)c1cncn1C[C@@H]1CCC(=O)N1Cc1ccc(C(=O)O)cc1", "Activity": "26%"}
{"molecule": "O=C(O)c1ccc(CN2C(=O)CC[C@H]2Cn2ccnc2)cc1", "Activity": "6%"}
{"molecule": "CC(Cc1ccc(O)c(O)c1)C(C)Cc1ccc(O)c(O)c1 (centres undefined)", "Activity": "81%"}
{"molecule": "COC(=O)c1ccc(CN2C(=O)CC[C@H]2Cn2ccnc2)cc1", "Activity": "6%"}
